B1: POU domain, class 5, transcription factor 1, residues 134 to 212; numbered along this chain, Q01860 (parent)
chain: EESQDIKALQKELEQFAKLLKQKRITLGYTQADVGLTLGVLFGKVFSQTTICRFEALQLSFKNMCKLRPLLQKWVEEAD

variants of: B1; experiment: abundance fitness (aPCA) (normalised: wild type 0, dead -1); higher = more abundant; growth selection in yeast, the domain comes from the species named; details: Homo sapiens
Each entry below carries its recorded abundance fitness.

| MUTATION KEY | abundance fitness |
| --- | --- |
| T49N | -0.111 |
| E77P | -0.264 |
| L57W | -0.355 |
| D33A | -0.594 |
| K11E | -0.031 |
| L36H | 0.362 |
| F16C | -0.23 |
| E1L | -0.135 |
| L71R | -0.509 |
| Q10R | 0.137 |
| A32T | -0.06 |
| Q31H | -0.108 |
